# study-system: T1, ARHGAP21, Q5T5U3
# T1 sequence (Q5T5U3 45-169, limits assumed, looked up): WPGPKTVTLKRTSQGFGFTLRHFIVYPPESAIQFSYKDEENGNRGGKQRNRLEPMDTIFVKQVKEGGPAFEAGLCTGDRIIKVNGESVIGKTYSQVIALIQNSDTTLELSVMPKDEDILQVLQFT
# protocol-text: holdup assay
# Set-up: key: below the threshold = too weak to quantify, mostly under pKd 3.1 to 4
# setup-conditions: plain residues with an end cap or a label only (N-terminal biotin on a linker: ado-ado)

binder	pKd
GIKKITSTAL [RPS6KA3, P51812]	3.93
EPQYQPGENL [SRC, P12931]	4
GTGYDRKDYV [CLDN3, O15551]	3.83
EKCGKEFSEF [PRKACA, P17612]	below the threshold
SLNANEVEWF [RNF130, Q86XS8]	4.49
DGVNEKVSCV [HTR2A, P28223]	below the threshold
PSHPRLQTHV [KIRREL2, Q6UWL6]	below the threshold
AAVENKVTDL [PLXNB1, O43157]	4.07
